- Measured on: T1, O5-bA
- T1 chain: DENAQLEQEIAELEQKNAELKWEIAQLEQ
- Procedure details: two-hybrid library CCNG1;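 further: natural log of median RNA to DNA barcode read ratio; higher means stronger binding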
Property name: interaction score

>  <Binder>
DKNAQLKQENAELEQKIAELKWKIAQLKQ [O10-bA]

>  <interaction score>
-0.944

$$$$
>  <Binder>
DKNAQLKQKIAELKQKNAELKWEIAQLEQ [O13-bA]

>  <interaction score>
0.182

$$$$
>  <Binder>
DEIAQLEQKIAELKQKNAELKWKNAQLKQ [O12-bA]

>  <interaction score>
-0.511

$$$$
>  <Binder>
DEIAQLEQENAELEQKIAELKWENAQLEQ [O15-bA]

>  <interaction score>
-0.66

$$$$
>  <Binder>
DENAQLEQEIAELEQENAELEWKIAQLKQ [O14-bA]

>  <interaction score>
1.69

$$$$

1. DENAQLEQKNAELKQKIAELKWKIAQLKQ [O2-bA]
2. DEIAQLEQKIAELKQENAELEWENAQLEQ [O3-bA]
Query block: Please compare: 1 and 2 . Report which one has the smaller interaction score value. Identify your pick by its label.
Result block: 2
(2: -0.75, 1: 0.59)

1. DKIAQLKQKNAELKQEIAELEWKNAQLKQ [O16-bA]
2. DKIAQLKQEIAELEQENAELEWENAQLEQ [O11-bA]
Query block: Smaller interaction score value? Options are 1 and 2 // output: label of the selected item
Result block: 1
(1: -1.16, 2: -0.78)

I. DKNQQLEQKIQELEQKIQELEWENQELKQ [4H3364-bN]
II. DKIAQLKQEIAELEQKNAELKWKNAQLKQ [O4-bA]
Query block: For I and II , which recorded interaction score is lower? Give the label under which the chosen entry appears.
Result block: I
